- test method notes: A549 cell cytotoxicity, dose response, cytotoxicity control, plate reader, cherry-pick, antagonist series (AID 743412)
- Type: functional, cell-based
Activity calls are given as the source filed them.
The reply should be one of these categories: 1 = active, 0 = inactive

Oc1nc(CSc2ccccn2)nc2c1oc1ccccc12 :: 0
CCCCNc1c(-c2cccc(-c3ccc(OC)cc3)c2)nc2ccc(C)cn12 :: 1
N#C[C@H]1[C@H](c2ccc(C#Cc3ccccc3F)cc2)[C@H](CO)N1C(=O)C1CCCC1 :: 1

From here, focus on the item given below.
Enquiry: Field: outcome | Entry: `C[C@@H]1CN([C@H](C)CO)C(=O)Cc2cc(NC(=O)Nc3ccc(F)cc3)ccc2O[C@@H]1CN(C)CC1CCCCC1`
Return: 1

====

- study system: Cannabinoid receptor 2 (Homo sapiens, UniProt P34972);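 note: agonist-driven beta-arrestin GFP redistribution into spots imaged in fixed cells; antagonist potency means blocking of agonist-induced arrestin spot formation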
- Sequence (P34972 whole entry): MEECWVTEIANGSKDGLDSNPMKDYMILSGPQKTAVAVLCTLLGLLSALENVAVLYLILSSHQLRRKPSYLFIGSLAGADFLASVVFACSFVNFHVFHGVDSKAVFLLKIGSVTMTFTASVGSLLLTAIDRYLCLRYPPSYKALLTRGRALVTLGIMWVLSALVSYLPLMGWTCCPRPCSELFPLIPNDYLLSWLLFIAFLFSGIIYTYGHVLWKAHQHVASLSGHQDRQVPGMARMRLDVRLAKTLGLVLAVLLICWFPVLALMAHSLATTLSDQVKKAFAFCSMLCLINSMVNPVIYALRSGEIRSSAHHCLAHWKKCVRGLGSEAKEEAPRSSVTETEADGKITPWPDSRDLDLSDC
- test method notes: SAR analysis of antagonists of the Cannabinoid Receptor 2 using an Image-Based Assay - Set 3. [Related pubchem assays (depositor defined):AID2013, AID2026]
- Type: functional
The source made the active and inactive calls.
readout type: IC50

Cc1ccc(-c2cc(C(=O)Nc3ccc(S(=O)(=O)Nc4cc(C)on4)cc3)c3ccccc3n2)c(C)c1 :: > 32 µM (inactive)
CCN(CC)S(=O)(=O)c1ccc(NC(=O)c2cc(-c3ccccc3)nc3ccccc23)cc1 :: > 10.8 µM (inactive)
Cc1nc(N2CCN(C(=O)c3ccc4c(c3)OCCO4)CC2)c2c3c(sc2n1)CCCC3 :: 24.2 µM (inactive)

Now let's try a different one.
Enquiry: Please indicate IC50 recorded for `CCOC(=O)c1cc2c(=O)n3ccccc3nc2n(Cc2ccccc2)c1=N`
Return: > 32 µM (inactive)

====

- study system: Galanin receptor type 3 (Homo sapiens, UniProt O60755)
- Sequence (O60755 whole entry): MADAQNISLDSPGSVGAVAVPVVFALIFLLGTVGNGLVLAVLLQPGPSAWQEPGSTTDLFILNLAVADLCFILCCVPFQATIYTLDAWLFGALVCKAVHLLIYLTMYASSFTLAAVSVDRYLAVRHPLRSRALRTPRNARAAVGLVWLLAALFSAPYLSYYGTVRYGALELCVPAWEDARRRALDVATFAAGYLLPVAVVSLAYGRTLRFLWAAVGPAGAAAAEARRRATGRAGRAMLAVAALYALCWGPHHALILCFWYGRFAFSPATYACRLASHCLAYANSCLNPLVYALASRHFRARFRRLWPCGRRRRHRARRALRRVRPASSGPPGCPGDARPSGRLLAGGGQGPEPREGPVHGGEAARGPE
- test method notes: Fluorescence-based cell-based primary high throughput dose response assay to identify antagonists of the Galanin Receptor 3 (GalR3).
- Type: functional
Activity calls are given as the source filed them.
The reply should be one of these categories: active, inactive

Answered cases to consult:
C=CCNc1ncnc2c1ncn2C1OC(CO)C(O)C1O (centres undefined) :: active
CO/C(O)=C1\C(C)=NC2=C(C(=O)CCC2)C1c1cn(Cc2ccc(Cl)cc2Cl)nc1-c1ccccc1 (centres undefined) :: active
CC[n+]1c(/C=C/C=C/c2ccc(N(C)C)cc2)sc2ccccc21.[O-][Cl+3]([O-])([O-])[O-] :: inactive

From here, focus on the item given below.
Enquiry: Field: outcome | Entry: `CC(=O)c1c(C)[nH]c(C(=O)COc2cc(C)ccc2C(C)C)c1C`
Return: active

====

- test method notes: OVCAR8 cell viability loss – plate reader, dry powder samples, PAX8 project, dose response (AID 743197)
- Assay type: functional, cell-based
- measurement parameters: OVCAR-8
Calls of active or inactive are those of the source.
readout type: AC50

# count of solved cases: 3
C[C@@H]1CN([C@@H](C)CO)C(=O)c2cc(NC(=O)Nc3ccc(C(F)(F)F)cc3)ccc2O[C@@H](C)CCCCO[C@@H]1CN(C)Cc1ccc2c(c1)OCO2 :: 57.3 µM (active)
C[C@@H]1CN([C@H](C)CO)C(=O)c2cc(NS(=O)(=O)c3ccccc3)ccc2O[C@@H](C)CCCCO[C@H]1CN(C)Cc1ccc(Cl)c(Cl)c1 :: 45 µM (active)
C[C@@H]1CN([C@H](C)CO)C(=O)c2cc(NC(=O)Nc3ccc4c(c3)OCO4)ccc2O[C@@H](C)CCCCO[C@H]1CN(C)Cc1ccc(C(F)(F)F)cc1 :: > 60 µM (inactive)

Now let's try a different one.
Enquiry: Please indicate AC50 recorded for `C[C@@H]1CN([C@H](C)CO)C(=O)c2cc(NS(=O)(=O)c3ccc(Cl)cc3)ccc2O[C@@H](C)CCCCO[C@H]1CN(C)S(=O)(=O)c1ccc(F)cc1`
Return: > 70 µM (inactive)

====

Target or system Cytochrome P450 2D6 (Homo sapiens, UniProt P10635): recorded AC50 listed per item.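 Note: CYP2D6 member of a cytochrome P450 panel assay.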

CCCCOc1ccc(C(=O)N/C(=C\c2ccc(OC)cc2)C(=O)OCc2ccco2)cc1 :: 7.94 µM (inconclusive)
c1ccc(CCc2cccnc2)nc1 :: 7.94 µM (inconclusive)
COc1ncc2nc(-c3cccs3)c(=O)n(Cc3ccc(F)cc3)c2n1 :: 0.398 µM (inconclusive)
Clc1ccccc1-c1nccc(NCCN2CCOCC2)n1 :: 12.6 µM (inconclusive)
CN(C)CCO[C@@H](c1ccc(Cl)cc1)c1ccccn1 [ROTOXAMINE] :: 12.6 µM (inconclusive)

Enquiry: Please indicate AC50 recorded for `Cc1sc(N/N=C/c2cccnc2)nc1-c1ccccc1`
Return: 0.794 µM (inconclusive)

Enquiry: Please indicate AC50 recorded for `Clc1ccccc1-c1nc(N2CCNCC2)c2ccccc2n1`
Return: 31.6 µM (inconclusive)

Enquiry: Please indicate AC50 recorded for `COc1cccc(Nc2ncc3nc(-c4cccs4)c(=O)n(C[C@H]4CCCO4)c3n2)c1`
Return: 15.8 µM (inconclusive)

Enquiry: Please indicate AC50 recorded for `CCCN(CCC)C(=S)NC(=O)c1ccc(Cl)cc1Cl`
Return: 10 µM (inconclusive)

Enquiry: Please indicate AC50 recorded for `N#Cc1cccc(NC(=O)N2CCCC3(CCN(C(=O)c4ccncc4)CC3)C2)c1`
Return: 25.1 µM (inconclusive)

====

Readings of AC50 for the listed compounds
- study system: Replicative DNA helicase DnaB (Mycobacterium tuberculosis)
- test method notes: DnaB intein splicing inhibitors, dose response, biochemical, cell-free fluorescence (AID 449749)
- Assay type: functional
Active and inactive are the calls of the source.

# count of solved cases: 5
CC1=NN(CCC#N)C(=O)/C1=C/c1ccc(N(C)C)cc1 :: 2.79 µM (inconclusive)
CC1=NN(c2ccc(C)c(C)c2)C(=O)C1C(c1cccc(O)c1)C1C(=O)N(c2ccc(C)c(C)c2)N=C1C (stereo not drawn) :: 1.14 µM (active)
O=C1CC(c2cccnc2)=NN1c1ccccc1 :: 3.7 µM (active)
COc1ccc(N2C(=O)C(Cl)=C(N3CCOCC3)C2=O)cc1 :: 10.8 µM (active)
COc1ccc(/C=C2/C(=O)N(Cc3ccccc3)N=C2C)cc1 :: 4.12 µM (active)

Enquiry: Please indicate AC50 recorded for `Cc1ccc(S(=O)(=O)Cc2cc(F)c([N+](=O)[O-])cc2[N+](=O)[O-])cc1`
Return: 16.6 µM (active)

Enquiry: Please indicate AC50 recorded for `COc1ccc(-c2cc(CNC(=O)CCl)on2)cc1`
Return: 262 µM (active)

Enquiry: Please indicate AC50 recorded for `O=C1CC/[N+](=C\c2ccc(Cl)cc2)[N-]1`
Return: 150 µM (active)

====

- study system: Corticotropin-releasing factor receptor 2/Corticotropin-releasing factor-binding protein (Homo sapiens, UniProt P24387+Q13324)
- Sequence (Q13324 whole entry): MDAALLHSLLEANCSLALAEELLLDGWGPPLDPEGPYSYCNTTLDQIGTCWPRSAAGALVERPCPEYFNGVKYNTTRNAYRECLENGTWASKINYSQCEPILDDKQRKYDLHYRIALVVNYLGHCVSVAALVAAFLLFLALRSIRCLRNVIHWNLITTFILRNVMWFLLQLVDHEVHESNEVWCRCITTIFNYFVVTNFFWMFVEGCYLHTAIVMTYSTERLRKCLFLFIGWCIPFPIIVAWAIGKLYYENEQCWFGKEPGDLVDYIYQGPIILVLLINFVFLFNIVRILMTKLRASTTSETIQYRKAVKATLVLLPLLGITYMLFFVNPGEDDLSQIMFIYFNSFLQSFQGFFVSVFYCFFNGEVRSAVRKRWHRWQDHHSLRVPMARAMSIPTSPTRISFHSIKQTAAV
- Sequence (P24387 whole entry): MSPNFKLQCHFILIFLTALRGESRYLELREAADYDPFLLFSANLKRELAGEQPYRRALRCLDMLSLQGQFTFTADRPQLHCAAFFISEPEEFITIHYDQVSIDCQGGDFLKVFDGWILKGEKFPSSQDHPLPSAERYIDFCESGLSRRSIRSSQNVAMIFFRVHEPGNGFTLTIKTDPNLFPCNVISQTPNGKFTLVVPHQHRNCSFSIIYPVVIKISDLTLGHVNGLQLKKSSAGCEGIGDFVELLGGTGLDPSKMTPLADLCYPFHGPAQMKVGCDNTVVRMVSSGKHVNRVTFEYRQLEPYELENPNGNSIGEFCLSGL
- test method notes: activators of CRF receptor 2 with binding protein – uHTS hits, confirmation (AID 602473)
- Format: functional
- measurement parameters: read-out: EC50_Mean
The source made the active and inactive calls.
The reply should be one of these categories: Y for active, N for inactive

Cc1ccc(S(=O)(=O)N2CCC(=O)N(C(COCc3ccc(C(F)(F)F)cc3)Cc3ccccc3)CC2)cc1 (stereo unspecified) :: Y

Enquiry: Field: outcome | Entry: COc1ccc([N+](=O)[O-])cc1N(CC(O)Cn1nnc2ccccc21)S(=O)(=O)c1ccc(C)cc1 (stereo unspecified)
Return: N

Enquiry: Field: outcome | Entry: `O=C1CCc2nc3ccccc3c(=O)n2N1`
Return: N

Enquiry: Field: outcome | Entry: `Cc1cc(=O)oc(C)c1C(=O)Nc1ccc2ncccc2c1`
Return: Y

Enquiry: Field: outcome | Entry: `O=C(CCn1nc(-c2ccccc2)ccc1=O)N1CCOCC1`
Return: N

Enquiry: Field: outcome | Entry: CC1C(=O)C(C)C(c2cc(Br)ccc2O)NC1c1cc(Br)ccc1O (stereo unspecified)
Return: N

Enquiry: Field: outcome | Entry: CC1(c2ccc(OC(F)F)cc2)NC(=O)N(/N=C/c2c(O)ccc3ccccc23)C1=O (stereo unspecified)
Return: N

====

- study system: DNA repair protein RAD52 homolog (Homo sapiens, UniProt P43351)
- Sequence (P43351 whole entry): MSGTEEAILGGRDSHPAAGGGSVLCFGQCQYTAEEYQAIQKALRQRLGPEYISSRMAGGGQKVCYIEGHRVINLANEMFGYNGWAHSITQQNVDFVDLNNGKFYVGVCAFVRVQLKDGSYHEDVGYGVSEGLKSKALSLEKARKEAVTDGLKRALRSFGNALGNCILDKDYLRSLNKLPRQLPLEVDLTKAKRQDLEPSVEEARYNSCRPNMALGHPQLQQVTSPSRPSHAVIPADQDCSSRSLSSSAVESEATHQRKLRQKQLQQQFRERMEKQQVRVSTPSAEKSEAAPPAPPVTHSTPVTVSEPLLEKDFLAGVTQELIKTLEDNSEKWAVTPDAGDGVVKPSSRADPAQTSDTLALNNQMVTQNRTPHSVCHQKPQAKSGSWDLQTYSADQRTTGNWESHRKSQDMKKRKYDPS
- Type: functional, biochemical
Active and inactive are the calls of the source.
readout type: AC50

# count of solved cases: 3
C[n+]1c(-c2ccc(C=NNC(=O)c3ccc(C(=O)NN=Cc4ccc(-c5cn6ccccc6[n+]5C)cc4)cc3)cc2)cn2ccccc21 :: 1.52 µM (active)
Cc1cc(C)n(-c2nc(NCCN(C)C)c3c4c(sc3n2)CCCC4)n1 :: 7 µM (active)
Cc1c(C)n(C)c2ccc(C(=O)NCCCN3CCN(C)CC3)cc12 :: 7.04 µM (active)

Now let's try a different one.
Enquiry: Please indicate AC50 recorded for `CCc1ccc2nc3nc(C)cc(C)c3c(N)c2c1`
Return: 3.58 µM (active)

====

- study system: Ubiquitin-conjugating enzyme E2 N (Homo sapiens, UniProt P61088);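 note: Dose-response confirmation in a TR-FRET assay detecting UBC13-driven polyubiquitin chain formation, inhibition measured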
- Sequence (P61088 whole entry): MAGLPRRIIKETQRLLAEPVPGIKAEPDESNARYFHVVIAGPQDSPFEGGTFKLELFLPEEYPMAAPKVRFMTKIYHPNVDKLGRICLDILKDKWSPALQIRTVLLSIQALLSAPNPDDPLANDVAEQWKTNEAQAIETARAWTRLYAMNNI
- Type: functional
The source made the active and inactive calls.
Readings of IC50 for the listed compounds

# count of solved cases: 5
COc1ccc2cc1Oc1ccc(cc1)C[C@H]1c3c(cc(OC)c4c3Oc3c(ccc5c3[C@H](C2)N(C)CC5)O4)CCN1C :: 16 µM (active)
CCOc1ccc(C(C(=O)NCC2CCCO2)N(C(=O)c2snc(C(N)=O)c2N)c2ccc3c(c2)OCCO3)cc1 (stereo unspecified) :: > 20 µM (inactive)
CCOC(=O)c1ccc(NC(=O)c2[nH]cnc2C(=O)NC2CCN(C(=O)OC(C)(C)C)CC2)cc1 :: > 20 µM (inactive)
CCCCCc1cc(=O)oc2c(C(CCN(CC)CC)c3cc(OC)c(OC)c(OC)c3)c(OC)cc(OC)c12 (stereo unspecified) :: > 20 µM (inactive)
Cc1ccc(CNC(=O)CSc2nc3ccsc3c(=O)n2Cc2ccc(C(=O)O)cc2)cc1 :: > 20 µM (inactive)

Enquiry: Please indicate IC50 recorded for `CCCCCCCCCCCCCCCC[n+]1ccc(C=NO)cc1`
Return: > 20 µM (inactive)
